Target Or System: CYP2D6 (Homo sapiens, UniProt P10635)
Sequence (P10635 whole entry): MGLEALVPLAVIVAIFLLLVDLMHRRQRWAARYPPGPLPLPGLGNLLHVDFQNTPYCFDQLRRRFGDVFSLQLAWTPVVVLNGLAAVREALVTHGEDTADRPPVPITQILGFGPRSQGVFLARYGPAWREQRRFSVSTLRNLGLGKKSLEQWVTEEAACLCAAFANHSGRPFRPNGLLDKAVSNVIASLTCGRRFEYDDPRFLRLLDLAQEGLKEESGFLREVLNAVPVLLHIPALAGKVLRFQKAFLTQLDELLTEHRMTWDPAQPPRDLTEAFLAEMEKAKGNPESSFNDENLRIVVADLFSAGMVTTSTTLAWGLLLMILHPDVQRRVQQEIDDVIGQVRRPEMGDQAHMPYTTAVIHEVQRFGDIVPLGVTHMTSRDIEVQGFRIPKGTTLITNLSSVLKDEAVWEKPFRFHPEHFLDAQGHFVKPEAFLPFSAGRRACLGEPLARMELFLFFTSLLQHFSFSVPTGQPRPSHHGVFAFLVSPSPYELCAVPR
Test: Inhibition of CYP2D6 at 10 uM
Assay type: ADME
Readout Name: inhibition at 10 µM

Task: Can you look up the measured inhibition at 10 µM of CC(C)(C)c1c(C(=O)NC2C3CC4CC(C3)CC2C4)cnn1-c1ccc(C(=O)O)cc1 (stereo unspecified) for me?
Result: < 25%

----------
Test: Volume of distribution at steady state in rat at 1 and 3 mg/kg
Type: ADME, organism-based
Design: dose 3 mg/kg
Experimental Context: in vivo, read-out: Vdss
Readout Name: Vd (L/kg)
The answer is to be given in L/kg; state only the numeric part.

Task: Can you look up the measured Vd of CC(C)(C)c1c(C(=O)NC2C3CC4CC(C3)CC2C4)cnn1-c1ccc(C(=O)O)cc1 (stereo unspecified) for me?
Result: 0.3

----------
Test: Half life in dog at 1 and 3 mg/kg, iv
Assay type: ADME, organism-based, Canis lupus familiaris
Parameters: dose 3 mg/kg, route intravenous
Experimental Context: in vivo
Readout Name: half-life (h)
The answer is to be given in h; state only the numeric part.

Task: Can you look up the measured half-life of CC(C)(C)c1c(C(=O)NC2C3CC4CC(C3)CC2C4)cnn1-c1ccc(C(=O)O)cc1 (stereo unspecified) for me?
Result: 5.5

----------
Test: Apparent permeability from basolateral to apical side in MDCK cells at 10 uM
Type: ADME, cell-based, Canis lupus familiaris
Experimental Context: dog
Readout Name: Papp B→A at 10 µM (×10⁻⁶ cm/s)
The answer is to be given in ×10⁻⁶ cm/s; state only the numeric part.

Task: Can you look up the measured Papp B→A at 10 µM of CC(C)(C)c1c(C(=O)NC2C3CC4CC(C3)CC2C4)cnn1-c1ccc(C(=O)O)cc1 (stereo unspecified) for me?
Result: 3.9

----------
Test: Intrinsic clearance in rat hepatocytes assessed per 10^6 cells
Reported hepatocyte CLint values for the following molecules.

Take a look at these entries with their results.
{"columns": ["Molecule", "hepatocyte CLint"],
 "data": [
  ["CCCSc1c(C(=O)NC2CCCCC2)cnn1-c1ccc(C(=O)O)cc1", "< 3 µL/min/1e6 cells"],
  ["O=C(O)c1ccc(-n2ncc(C(=O)NC3C4CC5CC(C4)CC3C5)c2C2CCC2)cc1 (stereo not given)", "< 3 µL/min/1e6 cells"],
  ["CSc1c(C(=O)NC2C3CC4CC(C3)CC2C4)cnn1-c1ccc(C(=O)O)cc1 (stereo not given)", "< 2 µL/min/1e6 cells"]
]}

Task: Can you look up the measured hepatocyte CLint of CC(C)(C)c1c(C(=O)NC2C3CC4CC(C3)CC2C4)cnn1-c1ccc(C(=O)O)cc1 (stereo not given) for me?
Result: < 2 µL/min/1e6 cells

Task: Can you look up the measured hepatocyte CLint of CCCSc1c(C(=O)N[C@H]2C3CC4CC2C[C@](O)(C4)C3)cnn1-c1ccc(C(=O)O)cc1 for me?
Result: < 2 µL/min/1e6 cells
